Listed substances paired with reported RT, HPLC retention time
# TEST_DETAILS: HPLC retention time (LC-MS method B)
# Type: physicochemical
# CONDITION_DETAILS: method B: X-Select CSH C18 XP, 0.1% formic acid water/acetonitrile, 5-100% B in 3.2 min, 1.8 mL min^−1, 40 °C; used as indicator of hydrophobicity
Ends that are not written are not given here.

Req: Look up RT, HPLC retention time of SALEEQLKTFLDKFMHELEDLLYQLAL-NH2 [P8] and report it.
Resp: 2,45 min

Req: Give the measured RT, HPLC retention time for H-SALEEQLKTFLDKFLHELEDPLYQLAL-NH2 [P5]
Resp: 2,16 min

Req: // Input: H-AHLFSYLTTKEEQDNDAIFLQEFSKES-NH2 [P1scr, reference compound] . Output its RT, HPLC retention time only.
Resp: 1,54 min

Req: Write down RT, HPLC retention time measured for item H-SALEEQLKTFLDKFLHELEDLLYQLALAL-NH2 [P6]
Resp: 2,74 min

Req: Quickly give me recorded RT, HPLC retention time for Ac-SALEEQLKTFLDKFLHELEDLLYQLAL-NH2 [P4]
Resp: 2,69 min

Req: Please indicate RT, HPLC retention time recorded for H-SALEEQLKTFLDKFLHELEDLLYQLAL-NH2 [P3]
Resp: 2,53 min

Req: Supply RT, HPLC retention time value. Item: H-SALEEQLKTFLDKFLHELEDLLYQLSL-NH2 [P2]
Resp: 1.47 min
